This collection of values is drawn from patent US20250297004A1.

target: human Nectin-4 (protein used in the SPR affinity measurements) (human) (UniProt Q96NY8); assay: SPR, human IgG1
Sequence (Q96NY8 32-349 limits assumed): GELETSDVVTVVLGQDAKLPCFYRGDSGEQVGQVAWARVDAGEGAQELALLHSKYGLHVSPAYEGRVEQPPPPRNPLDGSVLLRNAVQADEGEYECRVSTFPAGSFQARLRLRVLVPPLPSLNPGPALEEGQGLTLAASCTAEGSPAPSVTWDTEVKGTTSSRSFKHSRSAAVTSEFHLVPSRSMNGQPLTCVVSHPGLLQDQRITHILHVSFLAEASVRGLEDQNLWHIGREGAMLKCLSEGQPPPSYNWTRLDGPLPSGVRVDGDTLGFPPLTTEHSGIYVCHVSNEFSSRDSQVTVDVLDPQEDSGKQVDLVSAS
REPORTED PROPERTY: pKd
Please express pKd as -log10 of the molar concentration.

response.value for H3L3 (antibody, human IgG1, V domains shown, human IgG1 isotype) VH: QVQLVQSGAEVKKPGASVKVSCKASGYIFTSYWMHWVRQAPGQGLEWMGEIDPSDSYTNYNQKFKGRVTMTLDKSTSTTYMELSSLRSEDTAVYYCARGYGNYGDYWGQGTLVTVSS VL: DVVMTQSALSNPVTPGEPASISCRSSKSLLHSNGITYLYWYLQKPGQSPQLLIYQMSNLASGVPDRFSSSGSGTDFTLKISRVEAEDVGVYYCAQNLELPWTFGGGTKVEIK (field: pKd) = 7.57

H1L0 (antibody, human IgG1, V domains shown, human IgG1 isotype) VH: QVQLVQSGAEVKKPGASVKVSCKASGYTFTSYWMHWVRQAPGQGLEWMGEIDPSDSYTNYNQKFKGRVTMTLDTSTSTTYMELSSLRSEDTAVYYCARGYGNYGDYWGQGTLVTVSS VL: DIVMTQSPLSLPVTPGEPASISCRSSKSLLHSNGITYLYWYLQKPGQSPQLLIYQMSNLASGVPDRFSGSGSGTDFTLKISRVEAEDVGVYYCAQNLELPWTFGGGTKVEIK yielded pKd of 7.17

Short answer for H6L3 (antibody, human IgG1, V domains shown, human IgG1 isotype) VH: QVQLVQSGAEVKKPGASVKVSCKASGYIFTSYWMHWVKQRPGQGLEWIGEIDPSDSYTNYNQKFKGRVTMTLDKSTSTTYMELSSLRSEDTAVYYCARGYGNYGDYWGQGTLVTVSS VL: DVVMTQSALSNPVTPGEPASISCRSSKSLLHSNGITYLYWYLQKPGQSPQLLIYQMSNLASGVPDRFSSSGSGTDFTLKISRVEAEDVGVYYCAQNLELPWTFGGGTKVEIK : pKd was 7.41

So for H4L1 (antibody, human IgG1, V domains shown, human IgG1 isotype) VH: QVQLVQSGAEVKKPGASVKVSCKASGYIFTSYWMHWVKQAPGQGLEWMGEIDPSDSYTNYNQKFKGRVTMTLDKSTSTTYMELSSLRSEDTAVYYCARGYGNYGDYWGQGTLVTVSS VL: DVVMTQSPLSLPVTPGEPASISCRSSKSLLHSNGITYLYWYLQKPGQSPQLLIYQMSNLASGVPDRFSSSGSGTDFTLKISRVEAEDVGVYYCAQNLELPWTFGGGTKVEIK , the logged pKd turned out to be 7.71

// pKd value for H5L1 (antibody, human IgG1, V domains shown, human IgG1 isotype) VH: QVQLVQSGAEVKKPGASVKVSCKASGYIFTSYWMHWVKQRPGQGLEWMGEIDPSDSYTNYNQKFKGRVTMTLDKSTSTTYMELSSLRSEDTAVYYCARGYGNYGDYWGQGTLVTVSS VL: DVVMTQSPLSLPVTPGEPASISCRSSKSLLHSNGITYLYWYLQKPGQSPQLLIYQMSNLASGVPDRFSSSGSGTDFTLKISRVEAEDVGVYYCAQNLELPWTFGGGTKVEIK : 7.61
